target: Epidermal growth factor receptor (Homo sapiens)
Sequence (P00533 whole entry): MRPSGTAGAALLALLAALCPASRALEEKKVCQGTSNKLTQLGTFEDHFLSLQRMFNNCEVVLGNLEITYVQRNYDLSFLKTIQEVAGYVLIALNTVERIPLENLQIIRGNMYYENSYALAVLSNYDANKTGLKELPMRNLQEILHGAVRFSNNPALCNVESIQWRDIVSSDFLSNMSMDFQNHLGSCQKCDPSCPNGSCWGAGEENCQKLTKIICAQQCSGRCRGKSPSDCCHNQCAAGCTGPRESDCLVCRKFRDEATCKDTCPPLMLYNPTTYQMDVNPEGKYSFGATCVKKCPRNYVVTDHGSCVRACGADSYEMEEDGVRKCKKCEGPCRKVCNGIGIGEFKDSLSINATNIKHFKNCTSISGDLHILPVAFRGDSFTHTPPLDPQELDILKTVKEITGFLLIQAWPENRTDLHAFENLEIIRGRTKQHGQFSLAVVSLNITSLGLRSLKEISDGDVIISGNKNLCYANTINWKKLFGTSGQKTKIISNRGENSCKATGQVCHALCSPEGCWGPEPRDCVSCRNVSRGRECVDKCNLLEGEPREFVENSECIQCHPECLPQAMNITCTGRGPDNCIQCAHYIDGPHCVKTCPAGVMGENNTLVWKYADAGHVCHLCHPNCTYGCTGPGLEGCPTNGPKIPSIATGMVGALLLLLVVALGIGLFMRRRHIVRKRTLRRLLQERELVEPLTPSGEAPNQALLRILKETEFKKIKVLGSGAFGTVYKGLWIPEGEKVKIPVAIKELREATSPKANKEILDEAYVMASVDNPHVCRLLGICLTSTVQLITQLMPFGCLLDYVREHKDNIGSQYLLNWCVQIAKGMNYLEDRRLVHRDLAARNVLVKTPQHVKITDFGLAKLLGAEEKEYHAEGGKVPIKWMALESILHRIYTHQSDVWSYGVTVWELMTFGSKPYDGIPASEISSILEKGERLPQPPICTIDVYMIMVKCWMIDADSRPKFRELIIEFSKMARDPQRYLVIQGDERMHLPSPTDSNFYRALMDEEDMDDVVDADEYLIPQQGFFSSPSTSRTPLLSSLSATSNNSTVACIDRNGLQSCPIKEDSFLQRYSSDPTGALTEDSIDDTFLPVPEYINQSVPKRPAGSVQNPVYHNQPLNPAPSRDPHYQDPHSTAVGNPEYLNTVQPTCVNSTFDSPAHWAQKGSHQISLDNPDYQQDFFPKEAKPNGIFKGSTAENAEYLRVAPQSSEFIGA
metricName: IC50 (nM)
Please state the figure in nM; there is no need to write the unit.

GET /values?readout=IC50&item= "C=CC(=O)N1CCN(c2ncnc3c(F)c(-c4c(O)cccc4F)c(Cl)cc23)CC1"
120

###

target: Secernin-3 (Homo sapiens, UniProt Q0VDG4)
Sequence (Q0VDG4 whole entry): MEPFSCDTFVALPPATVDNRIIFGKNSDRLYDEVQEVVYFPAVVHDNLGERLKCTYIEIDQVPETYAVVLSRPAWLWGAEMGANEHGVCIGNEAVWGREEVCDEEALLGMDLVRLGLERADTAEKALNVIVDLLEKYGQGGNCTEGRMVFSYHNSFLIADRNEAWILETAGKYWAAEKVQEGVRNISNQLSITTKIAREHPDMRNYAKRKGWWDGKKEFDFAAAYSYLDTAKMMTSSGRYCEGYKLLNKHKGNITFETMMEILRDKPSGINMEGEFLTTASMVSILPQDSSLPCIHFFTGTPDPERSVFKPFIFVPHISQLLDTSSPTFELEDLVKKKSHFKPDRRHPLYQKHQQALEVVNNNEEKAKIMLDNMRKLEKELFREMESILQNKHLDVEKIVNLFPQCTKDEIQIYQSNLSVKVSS
testDescription: Inhibition of full length human SCRN3 transfected in HEK293T cells
metricName: IC50 (µM)
Please state the figure in µM; there is no need to write the unit.

Notebook: pull reported IC50 for Secernin-3 (Homo sapiens, UniProt Q0VDG4), entry "NNc1ccc2ccccc2c1"
0.2
